# target entity: FPR2 (Homo sapiens)
# Sequence (P25090 whole entry, species assumed): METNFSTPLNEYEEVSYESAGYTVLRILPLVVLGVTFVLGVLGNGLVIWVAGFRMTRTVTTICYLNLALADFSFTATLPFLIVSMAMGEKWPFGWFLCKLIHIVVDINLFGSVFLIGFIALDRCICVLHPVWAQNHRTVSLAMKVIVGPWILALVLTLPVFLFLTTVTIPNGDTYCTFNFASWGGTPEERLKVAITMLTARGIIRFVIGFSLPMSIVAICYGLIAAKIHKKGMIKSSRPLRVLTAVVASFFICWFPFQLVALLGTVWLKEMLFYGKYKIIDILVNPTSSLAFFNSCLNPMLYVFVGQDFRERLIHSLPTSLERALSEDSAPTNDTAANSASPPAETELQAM
# experiment: Change in calcium activity by peptide (Fura-2) in RBL cells overexpressing FPR2
# test context: calcium activity (Fura-2), graded per Table 3, read-out: EC50 for [Ca^2+] FPR2
# Description: The present inventors observed changes in calcium ion permeability to confirm whether the immunomodulatory peptide candidates prepared according to one example of the present invention activate the immune function of a living organism. Specifically, the concentration of calcium ions in cells was measured to confirm whether the peptides activate FPR2. […]
Peptide text beside a SMILES is read from it.
Catalogue of compounds with associated EC50

- compound: "CSCC[C@H](NC(=O)[C@@H]1CCCN1C(C)=O)C(=O)N[C@@H](CCCNC(=N)N)C(=O)N[C@@H](Cc1ccc(O)cc1)C(=O)N[C@@H](CCCCN)C(=O)N1CCC[C@H]1C(=O)N[C@H](CCSC)C(N)=O [Peptide 63] (HELM PEPTIDE1{[ac].P.M.R.Y.K.P.[dM].[am]}$$$$V2.0)"
  target entity: "FPR2 (Homo sapiens)"
  endpoint value: "< 10 nM"
- compound: "CSCC[C@H](NC(=O)[C@@H](N)CCCNC(=N)N)C(=O)N[C@@H](CCCNC(=N)N)C(=O)N[C@@H](Cc1ccc(O)cc1)C(=O)N[C@@H](CCCCN)C(=O)N[C@H](C(=O)N[C@H](CCSC)C(N)=O)C(C)C [Peptide 5] (HELM PEPTIDE1{R.M.R.Y.K.V.[dM].[am]}$$$$V2.0)"
  target entity: "FPR2 (Homo sapiens)"
  endpoint value: "< 10 nM"

The measured EC50 that CCCCCCCC(=O)N[C@@H](CCCNC(=N)N)C(=O)N[C@@H](CCSC)C(=O)N[C@@H](CCCNC(=N)N)C(=O)N[C@@H](Cc1ccc(O)cc1)C(=O)N[C@@H](Cc1c[nH]c2ccccc12)C(=O)N1CCC[C@H]1C(=O)N[C@H](CCSC)C(N)=O [Peptide 109] (HELM PEPTIDE1{[CCCCCCCC(=O)[*:2]].R.M.R.Y.W.P.[dM].[am]}$$$$V2.0) showed for FPR2 (Homo sapiens) is < 10 nM

----------
# target entity: FPR1 (Homo sapiens, UniProt P21462)
# Sequence (P21462 whole entry, species assumed): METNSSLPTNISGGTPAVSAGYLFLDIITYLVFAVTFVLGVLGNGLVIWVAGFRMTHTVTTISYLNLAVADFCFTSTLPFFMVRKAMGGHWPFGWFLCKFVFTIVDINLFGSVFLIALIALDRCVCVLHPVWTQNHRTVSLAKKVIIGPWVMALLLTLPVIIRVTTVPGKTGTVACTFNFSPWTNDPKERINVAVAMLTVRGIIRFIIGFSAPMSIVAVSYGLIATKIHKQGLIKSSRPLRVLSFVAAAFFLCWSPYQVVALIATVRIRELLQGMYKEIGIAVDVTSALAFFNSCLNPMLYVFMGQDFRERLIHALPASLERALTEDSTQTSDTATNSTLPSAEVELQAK
# experiment: Change in calcium activity by peptide, FPR1 activation effect
# test context: calcium activity (Fura-2), graded per Table 3, read-out: EC50 for [Ca^2+] FPR1
Peptide text beside a SMILES is read from it.
parameter measured: EC50

Examples with their reported EC50 follow.
- compound: "CSCC[C@H](NC(C)=O)C(=O)N[C@@H](CCCCN)C(=O)N[C@@H](Cc1ccc(O)cc1)C(=O)N[C@@H](CCCCN)C(=O)N[C@H](C(=O)N[C@H](CCSC)C(N)=O)C(C)C [Peptide 18] (HELM PEPTIDE1{[ac].M.K.Y.K.V.[dM].[am]}$$$$V2.0)"
  target entity: "FPR1 (Homo sapiens, UniProt P21462)"
  EC50: "> 10 µM"
- compound: "CSCC[C@H](NC(=O)[C@H](Cc1c[nH]cn1)NC(C)=O)C(=O)N[C@@H](CCCNC(=N)N)C(=O)N[C@@H](Cc1ccc(O)cc1)C(=O)N[C@@H](Cc1c[nH]c2ccccc12)C(=O)N[C@@H](Cc1ccc(O)cc1)C(=O)N[C@H](CCSC)C(N)=O [Peptide 92] (HELM PEPTIDE1{[ac].H.M.R.Y.W.Y.[dM].[am]}$$$$V2.0)"
  target entity: "FPR1 (Homo sapiens, UniProt P21462)"
  EC50: "> 10 µM"
- compound: "CSCC[C@@H](NC(=O)[C@@H]1CCCN1C(=O)[C@H](Cc1c[nH]c2ccccc12)NC(=O)[C@H](Cc1ccc(O)cc1)NC(=O)[C@H](CCCNC(=N)N)NC(=O)[C@H](Cc1c[nH]c2ccccc12)NC(=O)[C@H](CCCNC(=N)N)NC(C)=O)C(N)=O [Peptide 117] (HELM PEPTIDE1{[ac].R.W.R.Y.W.P.[dM].[am]}$$$$V2.0)"
  target entity: "FPR1 (Homo sapiens, UniProt P21462)"
  EC50: "0.101 to 1 µM"

The reported EC50 of the compound CSCC[C@@H](NC(=O)[C@H](Cc1ccc(O)cc1)NC(=O)[C@H](Cc1ccc(O)cc1)NC(=O)[C@H](Cc1ccc(O)cc1)NC(=O)[C@H](CCCNC(=N)N)NC(=O)[C@H](Cc1c[nH]c2ccccc12)NC(=O)[C@@H](N)CCCNC(=N)N)C(N)=O [Peptide 123] (HELM PEPTIDE1{R.W.R.Y.Y.Y.[dM].[am]}$$$$V2.0) was > 10 µM

The reported EC50 of the compound CSCC[C@@H](NC(=O)[C@H](Cc1ccc(O)cc1)NC(=O)[C@@H](NC(=O)[C@H](Cc1ccc(O)cc1)NC(=O)[C@H](CCCNC(=N)N)NC(=O)[C@H](Cc1c[nH]c2ccccc12)NC(=O)[C@@H](N)CCCNC(=N)N)[C@@H](C)O)C(N)=O [Peptide 157] (HELM PEPTIDE1{R.W.R.Y.T.Y.[dM].[am]}$$$$V2.0) was > 10 µM

The reported EC50 of the compound CCCC(=O)N[C@@H](CCCNC(=N)N)C(=O)N[C@@H](CCSC)C(=O)N[C@@H](CCCNC(=N)N)C(=O)N[C@@H](Cc1ccc(O)cc1)C(=O)N[C@@H](CCCCN)C(=O)N1CCC[C@H]1C(=O)N[C@H](CCSC)C(N)=O [Peptide 52] (HELM PEPTIDE1{[CCCC(=O)[*:2]].R.M.R.Y.K.P.[dM].[am]}$$$$V2.0) was > 10 µM
